System: HeLa Kyoto
Test: solubility change mitosis vs G1/S (difference of NP-40 vs SDS log2 ratios) (log2 ratio difference); higher = more soluble in mitosis
propertyLabel: solubility change mitosis (log2)

Study these solved cases before continuing.
sequence	endpointResult
MTDGILGKAATMEIPIHGNGEARQLPEDDGLEQDLQQVMVSGPNLNETSIVSGGYGGSGDGLIPTGSGRHPSHSTTPSGPGDEVARGIAGEKFDIVKKWGINTYKCTKQLLSERFGRGSRTVDLELELQIELLRETKRKYESVLQLGRALTAHLYSLLQTQHALGDAFADLSQKSPELQEEFGYNAETQKLLCKNGETLLGAVNFFVSSINTLVTKTMEDTLMTVKQYEAARLEYDAYRTDLEELSLGPRDAGTRGRLESAQATFQAHRDKYEKLRGDVAIKLKFLEENKIKVMHKQLLLFHNAVSAYFAGNQKQLEQTLQQFNIKLRPPGAEKPSWLEEQ [ARFIP2]	0.0365
MAPVRRSAKWRPGGIEARGEGVSTVGYRNKNVRQKTWRPNHPQAFVGSVREGQGFAFRRKLKIQQSYKKLLRKEKKAQTSLESQFTDRYPDNLKHLYLAEEERHRKQARKVDHPLSEQVHQPLLEEQCSIDEPLFEDQCSFDQPQPEEQCIKTVNSFTIPKKNKKKTSNQKAQEEYEQIQAKRAAKKQEFERRKQEREEAQRQYKKKKMEVFKILNKKTKKGQPNLNVQMEYLLQKIQEKC [CCDC59]	0.278

Here is another sequence to look at.
Request: solubility change mitosis (log2), test system HeLa Kyoto, entry MAASCVLLHTGQKMPLIGLGTWKSEPGQVKAAVKYALSVGYRHIDCAAIYGNEPEIGEALKEDVGPGKAVPREELFVTSKLWNTKHHPEDVEPALRKTLADLQLEYLDLYLMHWPYAFERGDNPFPKNADGTICYDSTHYKETWKALEALVAKGLVQALGLSNFNSRQIDDILSVASVRPAVLQVECHPYLAQNELIAHCQARGLEVTAYSPLGSSDRAWRDPDEPVLLEEPVVLALAEKYGRSPAQILLRWQVQRKVICIPKSITPSRILQNIKVFDFTFSPEEMKQLNALNKNWRYIVPMLTVDGKRVPRDAGHPLYPFNDPY [AKR1A1];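 further: synchronized HeLa Kyoto cells (double thymidine block for G1/S, nocodazole release for mitosis), protein amounts in NP-40 versus SDS lysates quantified by mass spectrometry, three biological replicates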
-0.00767
